Biological target: MIF (Homo sapiens)
Sequence (P14174 whole entry): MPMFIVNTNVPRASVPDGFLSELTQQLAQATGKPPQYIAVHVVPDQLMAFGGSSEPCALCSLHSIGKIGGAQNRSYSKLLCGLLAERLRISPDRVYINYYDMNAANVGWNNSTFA
Assay: Nuclease assay of Example 3 (MIF inhibitory activity, Table 4)
Assay type: biochemical
Set-up: concentration or dose not given beside the values
Settings: nuclease assay of Example 3
Text: A rapafucin library was synthesized as described in WO2017/136708 and Guo et al. (2018) Nat. Chem. 11:254-63. The hybrid macrocyclic library consisted of 45,000 compounds in pools of 15 individual compounds. The library compounds were screened for MIF inhibitory activity using a nuclease assay as detailed in FIG. 1 and below. […]
assay_readout: (%) inhibition of MIF nuclease activity
Just the number please, in %, no unit attached.

Examples with their reported (%) inhibition of MIF nuclease activity follow.
[ask] Lab note: need (%) inhibition of MIF nuclease activity with MIF (Homo sapiens) for entry COc1ccc(CC[C@H]2OC(=O)[C@@H]3CCCCN3C(=O)C(=O)C(C)(C)COC(=O)C=CCCN(C)C(=O)[C@@H]3CCCN3C(=O)[C@H](COC(C)(C)C)N(C)C(=O)C(c3ccccc3)NC(=O)[C@H](Cc3ccccc3)N(C)C(=O)COc3cccc2c3)cc1OC (some centres unmarked) [compound 145] , please look it up.
[reply] 6.7

[ask] Next compound: COc1ccc(CC[C@H]2OC(=O)[C@@H]3CCCCN3C(=O)C(=O)C(C)(C)COC(=O)C=CCCN(C)C(=O)[C@@H](Cc3ccccc3)NC(=O)[C@H](COC(C)(C)C)N(C)C(=O)C(c3ccccc3)NC(=O)CN(C)C(=O)COc3cccc2c3)cc1OC (some centres unmarked) [compound 39]
[reply] 31.1

[ask] Next compound: COCC[C@@H]1NC(=O)[C@H](COC(C)(C)C)N(C)C(=O)[C@H](Cc2ccc3ccccc3c2)NC(=O)[C@H](C)N(C)C(=O)COc2cccc(c2)[C@@H](CCc2ccc(OC)c(OC)c2)OC(=O)[C@@H]2CCCCN2C(=O)C(=O)C(C)(C)COC(=O)C=CCCN(C)C1=O [compound 20]
[reply] 42.2

Next:
[ask] Lab note: need (%) inhibition of MIF nuclease activity with MIF (Homo sapiens) for entry COc1ccc(CC[C@H]2OC(=O)[C@@H]3CCCCN3C(=O)C(=O)C(C)(C)COC(=O)C=CCCN(C)C(=O)[C@@H]3CCCN3C(=O)[C@H](COC(C)(C)C)N(C)C(=O)C(c3ccccc3)NC(=O)[C@H](COC(C)(C)C)N(C)C(=O)COc3cccc2c3)cc1OC (some centres unmarked) [compound 146] , please look it up.
[reply] −1.1

[ask] Next compound: COc1ccc(OC)c(OC)c1CC[C@H]1OC(=O)[C@@H]2CCCCN2C(=O)C(=O)C(C)(C)COC(=O)C=CCCN(C)C(=O)[C@@H]2CCCN2C(=O)[C@H](COC(C)(C)C)N(C)C(=O)C(c2ccccc2)NC(=O)[C@H](C)N(C)C(=O)COc2cccc1c2 (some centres unmarked) [compound 123]
[reply] −5.1
